Study System: Sialic acid-binding Ig-like lectin 9 (Homo sapiens) (UniProt Q9Y336)
Sequence (Q9Y336 whole entry): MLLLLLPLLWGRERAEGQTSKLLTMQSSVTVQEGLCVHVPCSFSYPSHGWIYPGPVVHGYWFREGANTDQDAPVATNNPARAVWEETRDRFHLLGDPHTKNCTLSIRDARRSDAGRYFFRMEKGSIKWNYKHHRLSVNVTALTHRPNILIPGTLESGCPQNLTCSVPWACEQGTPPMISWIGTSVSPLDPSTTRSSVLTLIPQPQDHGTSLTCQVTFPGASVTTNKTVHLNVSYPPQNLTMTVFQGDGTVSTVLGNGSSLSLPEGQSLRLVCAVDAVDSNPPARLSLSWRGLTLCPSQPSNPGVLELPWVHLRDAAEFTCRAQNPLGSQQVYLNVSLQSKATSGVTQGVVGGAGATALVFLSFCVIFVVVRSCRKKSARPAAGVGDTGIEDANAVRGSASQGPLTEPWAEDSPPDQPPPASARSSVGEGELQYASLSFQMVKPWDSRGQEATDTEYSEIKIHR
Measurement Notes: Hs-Siglec9 ALPHAscreen SOP 20170721
Set-up: scale not given: direction of the effect not stated beside the values
Run Conditions: 10 µM
Property Name: Percent Effect (%)
Give just the numeric value; % need not be written.

Here are 10 compounds together with their reported answers.
COC(CNC(=O)N1CCC(n2cncn2)CC1)c1ccccc1 (stereo not given) ... 3.12
COc1ccc(CNC(C)c2ccc3[nH]c(=O)[nH]c3c2)cc1 (stereo not given) ... 13.3
O=C(c1cc(COc2ccc3c(c2)OCO3)[nH]n1)N1CC=CC1CO (stereo not given) ... 22.3
CCc1ncc2c(n1)CN(CC(=O)NCCOc1ccccc1)CC2 ... -1.72
Cc1noc(C)c1-c1cncc(C2CCCN2Cc2cncnc2)n1 (stereo not given) ... -2.83
Cc1cnn(CC2CCCCN2Cc2nc(N)c3ccccc3n2)c1 (stereo not given) ... 5.93
CN(C)[C@@H]1CCN(c2ncccn2)[C@H]1Cc1ccccc1 ... 3.63
O=C(CN1CCCC1Cn1cncn1)Nc1cccnc1 (stereo not given) ... 0.616
Cc1cc(C)n(CC2CCCCN2CC(=O)Nc2cccnc2)n1 (stereo not given) ... 36.3
COc1cccc(OCCNCc2c(C)nn(C)c2N(C)C)c1 ... 10.1

// lookup Percent Effect for CC(C)COC(C)C(=O)NCc1ccc(N(C)C)cc1 (stereo not given) -18.6

Which value of Percent Effect has been reported for CCOc1nc2cccnc2n(CC(=O)NCCOC)c1=O in the records? -0.135

Look at this compound and give its reported Percent Effect. O=C1[C@@H]2CCN(Cc3ccncc3)C[C@@H]2OCCN1c1ccccc1 0.633

What value of measured Percent Effect is listed for Cc1nc(C2CCCN(C(=O)c3cc(Cl)c[nH]3)C2)no1 (stereo not given) ? 10.9

Could you tell me which Percent Effect is on file for COc1cccc(-n2c(C)cc(C(=O)O)c2C)c1 ? -8.51

* * *

Study System: Tyrosyl-tRNA synthetase, putative (Trypanosoma cruzi (strain CL Brener))
Measurement Notes: Trypanosoma cruzi tyrosyl tRNA synthetase (TcYRS) _High Tyrosine SOP; further: in the data most compounds retested in dose-response had high values
Format: functional
Design: scale not given: direction of the effect not stated beside the values
Run Conditions: 30 µM
Each entry below carries its reported Percent Effect.
Record the value in %, omitting the unit from your answer.

A selection of reference data follows.
CC(O)CN1CCN(C(=O)CN(C)c2cnccn2)CC1 (stereo unspecified) ... 3.7
CCS(=O)(=O)Nc1ccc(C(=O)NCCCN2CCCC2)cc1 ... 4.25
Cc1cncc(C2CCCN(C(=O)c3scnc3C)C2)n1 (stereo unspecified) ... 3.23
Cc1cc2cc(C(=O)N[C@@H]3CC[C@@H](N4CCOCC4)[C@@H]3O)ccc2o1 ... 5.38
Cc1ccc(CN2CCN(CC3CC3)[C@@H]3CS(=O)(=O)C[C@@H]32)cc1C ... -2.73
CCc1ccc(CCC(=O)N2CCOCC2c2ncon2)cc1 (stereo unspecified) ... -0.99
CS(=O)(=O)N1Cc2nccn2CC(Cn2ncccc2=O)C1 (stereo unspecified) ... 3.12
CSc1ncccc1C(=O)N1C[C@H]2CC[C@@H]1CN(c1cnccn1)C2 ... 5.38

Reported Percent Effect for Tyrosyl-tRNA synthetase, putative (Trypanosoma cruzi (strain CL Brener)), given Cc1noc([C@@H]2CC[C@@H]3[C@@H](CCN3S(=O)(=O)C3CC3)O2)n1 ? 5.94

Param readout = Percent Effect; param system = Tyrosyl-tRNA synthetase, putative (Trypanosoma cruzi (strain CL Brener)); param query = CCOc1ccccc1OC1CCN(C(=O)c2cc[nH]n2)CC1 ; response: value 2.45

Give recorded Percent Effect with Tyrosyl-tRNA synthetase, putative (Trypanosoma cruzi (strain CL Brener)) for the following molecule: Cc1ccc(N2CC3(CCN(c4nccs4)C3)C2)nn1 5.21

* * *

Reported Percent Effect values for the following molecules.
Study System: Ubiquitin-activating enzyme e1, putative (Leishmania donovani (strain BPK282A1)) (UniProt E9BSI1)
Sequence (E9BSI1 as listed by the source): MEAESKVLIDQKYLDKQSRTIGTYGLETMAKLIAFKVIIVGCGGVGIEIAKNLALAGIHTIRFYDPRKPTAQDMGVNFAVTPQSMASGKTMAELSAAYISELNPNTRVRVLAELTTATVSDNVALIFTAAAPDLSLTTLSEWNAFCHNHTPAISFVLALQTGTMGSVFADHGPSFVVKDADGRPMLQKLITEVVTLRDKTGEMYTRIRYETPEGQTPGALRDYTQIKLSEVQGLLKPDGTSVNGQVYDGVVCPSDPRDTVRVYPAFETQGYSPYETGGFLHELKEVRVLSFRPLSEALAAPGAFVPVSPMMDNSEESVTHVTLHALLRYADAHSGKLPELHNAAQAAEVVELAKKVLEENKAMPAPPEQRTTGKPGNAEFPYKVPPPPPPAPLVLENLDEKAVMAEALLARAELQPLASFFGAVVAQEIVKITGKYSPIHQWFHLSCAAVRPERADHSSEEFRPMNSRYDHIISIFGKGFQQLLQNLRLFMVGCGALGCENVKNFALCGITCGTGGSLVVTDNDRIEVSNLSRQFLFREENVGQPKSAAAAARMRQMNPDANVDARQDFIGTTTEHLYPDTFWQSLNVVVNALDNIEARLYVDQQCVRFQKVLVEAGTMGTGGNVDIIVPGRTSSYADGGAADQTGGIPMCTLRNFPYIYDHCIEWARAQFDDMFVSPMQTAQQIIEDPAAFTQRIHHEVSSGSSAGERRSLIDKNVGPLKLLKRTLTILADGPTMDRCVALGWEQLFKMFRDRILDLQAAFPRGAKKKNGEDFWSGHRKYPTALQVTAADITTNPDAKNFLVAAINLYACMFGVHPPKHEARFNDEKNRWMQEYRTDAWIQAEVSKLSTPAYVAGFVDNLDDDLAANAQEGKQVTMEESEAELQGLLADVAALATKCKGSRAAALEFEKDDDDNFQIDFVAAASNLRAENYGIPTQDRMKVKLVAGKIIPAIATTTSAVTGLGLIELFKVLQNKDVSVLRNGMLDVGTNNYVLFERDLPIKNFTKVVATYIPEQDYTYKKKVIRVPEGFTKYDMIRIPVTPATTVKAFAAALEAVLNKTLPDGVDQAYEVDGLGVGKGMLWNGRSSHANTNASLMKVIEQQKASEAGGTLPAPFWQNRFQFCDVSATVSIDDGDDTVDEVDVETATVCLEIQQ
Measurement Notes: Leishmania donovani Ubiquitin Activating Enzyme (LdE1)
Type: functional
Set-up: scale not given: direction of the effect not stated beside the values
Run Conditions: 30 µM
Potency and affinity values are given separately.
Response body: numeric value in %, unit text excluded.

Example entries begin here.
CC(C)c1nc(C2CCCN2CCCc2nc3ccccc3o2)no1 (stereo unspecified) ... -8.11
Cc1ccc(CN2CC3(CCN(C(=O)c4cscn4)C3)C2)s1 ... 0
O=C(NC[C@]12COC[C@H]1CN(Cc1nccs1)C2)c1ccccc1 ... 17.3
Cc1cccc(Cn2c3c(ccc2=O)CCN(Cc2ccoc2)CC3)n1 ... 8.22
O=C(Cc1ccc2c(c1)CCCC2)NCCc1ccccn1 ... -7.89
CCOc1ccc(Cl)c(C(=O)N2CCN(CCO)CC2)n1 ... 10.4
Cc1noc(C)c1C(=O)N1CCCC1c1c(C)nn(C)c1Cl (stereo unspecified) ... 7.59
CCOc1cccc(CNC(=O)NCC(O)c2cccc(F)c2)c1 (stereo unspecified) ... 16.2

Endpoint output: Percent Effect of CCC(C)(NCC(=O)N(c1ccccc1)C(C)C)c1nc(C)cs1 (stereo unspecified) . Value? 8.11

I would be grateful if you could share the reported Percent Effect for c1ccc(-c2cnc(CN3CCn4c(nnc4C4CC4)C3)o2)cc1 . 13.2

Name the recorded Percent Effect for COc1ccc2cc(C3CN(C(=O)C4CCOCC4)CCO3)ccc2c1 (stereo unspecified) . 2.7

Reported Percent Effect for Cc1cnn(CCNCC(=O)NCCOc2ccccc2)c1 : what is it? 21.1

Record request: Percent Effect value, item Cc1ccccc1C1(C(=O)NCCN2CCCC2)CCOCC1 10.8

* * *

Quick reference for Percent Effect among some compounds
Study System: Tyrosyl-tRNA synthetase, putative (Trypanosoma cruzi (strain CL Brener)) (UniProt Q4DSP6)
Sequence (Q4DSP6 as listed by the source): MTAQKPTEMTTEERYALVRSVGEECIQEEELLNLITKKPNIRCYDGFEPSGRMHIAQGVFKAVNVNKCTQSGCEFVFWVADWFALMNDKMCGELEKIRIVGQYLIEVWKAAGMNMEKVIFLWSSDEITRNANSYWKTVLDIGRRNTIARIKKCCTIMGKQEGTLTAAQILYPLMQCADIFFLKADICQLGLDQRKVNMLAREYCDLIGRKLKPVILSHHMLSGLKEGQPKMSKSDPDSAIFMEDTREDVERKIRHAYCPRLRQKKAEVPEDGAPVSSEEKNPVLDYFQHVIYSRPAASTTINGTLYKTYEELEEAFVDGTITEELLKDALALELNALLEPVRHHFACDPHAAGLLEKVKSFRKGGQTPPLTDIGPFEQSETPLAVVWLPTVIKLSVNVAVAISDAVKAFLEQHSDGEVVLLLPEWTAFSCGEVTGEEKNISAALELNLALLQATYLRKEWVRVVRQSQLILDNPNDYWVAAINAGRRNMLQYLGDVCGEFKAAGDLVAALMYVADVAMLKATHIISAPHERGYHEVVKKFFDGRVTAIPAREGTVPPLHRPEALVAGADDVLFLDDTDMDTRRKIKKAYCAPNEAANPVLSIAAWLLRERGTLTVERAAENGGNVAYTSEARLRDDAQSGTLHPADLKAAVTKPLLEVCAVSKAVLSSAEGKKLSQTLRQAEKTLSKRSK
Measurement Notes: Trypanosoma cruzi tyrosyl tRNA synthetase (TcYRS) _High Tyrosine SOP; further: in the data most compounds retested in dose-response had high values
Type: functional
Set-up: scale not given: direction of the effect not stated beside the values
Run Conditions: 30 µM
Please respond with the number in % and leave the unit unwritten.

Some compounds with recorded Percent Effect:
CN(CCn1cccn1)S(=O)(=O)N1CCCC1c1ccco1 (stereo unspecified) ... -0.99
Cc1cn(-c2ccccc2)nc1NS(=O)(=O)c1cccc(C(=O)O)c1 ... -5.38
CC(=O)N(Cc1ncc(C(C)C)o1)C1CCN(Cc2ncc[nH]2)C1 (stereo unspecified) ... 13.9
Cc1nnc(N2C[C@H](C(=O)NCC3CC3)[C@@H]3CCO[C@@H]3C2)s1 ... 0
COCCN(C)CC(=O)N1C[C@H]2CC[C@@H]1CN(C(=O)c1ccncc1)C2 ... 6.01
CCCNC(=O)CNc1ccc(C(=O)N2CCCCC2C)cc1C (stereo unspecified) ... 5.83
Cc1cccc(NC(=O)N2CCCn3cnc(CN4CCCC4)c3C2)c1 ... 16.8
NC(=O)c1csc(C(=O)N2CCCCC2Cn2cccn2)c1 (stereo unspecified) ... 5.94

Can you share its Percent Effect? I mean this compound: CCOc1ccccc1-c1noc(CN2CC(n3cccn3)C2)n1 0.952

Dear colleague, I am looking for the recorded Percent Effect of the following compound: CCc1cc(=O)[nH]c2nnc(SCC(=O)OC)n12 6.45

// lookup Percent Effect for CC1(C)CC(N2Cc3nc(N4CCOCC4)ncc3C2=O)CC(C)(C)N1 0

* * *

The entries below are paired with their reported Percent Effect.
Study System: Proteasome subunit beta (Trypanosoma cruzi)
Measurement Notes: Trypanosoma cruzi proteasome chymotrypsin-like activity (TcProtChymo) assay. Further: in the data most compounds retested in dose-response had high values.
Format: functional
Design: scale not given: direction of the effect not stated beside the values
Run Conditions: 9.37 µM
# do not omit the unit; it follows the number

Known results for compounds:
O=C(N1CCCC1)N1CCO[C@H]2[C@@H](Oc3ccccn3)CC[C@@H]21 ... -1.85%
Cc1nc(O)cc(C2CCN(Cc3cccc(F)c3F)C2)n1 (stereo not given) ... 9.83%
Cc1ncsc1C(=O)Nc1cccc(OCC(F)F)n1 ... 22.5%
CC1CCCN(CCNC(=O)c2ccn(-c3ccccc3)n2)C1 (stereo not given) ... 5.07%

Okay, now this compound:
Could you tell me which Percent Effect is on file for Cc1nccc(C2CN(Cc3cc[nH]n3)CCO2)n1 (stereo not given) ? 4.84%

* * *

Study System: Sialic acid-binding Ig-like lectin 9 (Homo sapiens) (UniProt Q9Y336)
Measurement Notes: Hs-Siglec9 ALPHAscreen SOP 20170721
Design: scale not given: direction of the effect not stated beside the values
Run Conditions: 10 µM
Property Name: Percent Effect (%)
Give the value in % but do not write % after it.

See these solved cases before continuing.
CC(C)(C)NC(=O)CNC(=O)CCc1ccccc1Br ... 3.62
O=C(c1cnccn1)N1CCOCC2(CCN(C3CCOCC3)C2)C1 (stereo not drawn) ... -0.346
O=C(NCCOc1ccc2c(c1)OCO2)C1CC(=O)N(CC2CC2)C1 (stereo not drawn) ... -9.9
COc1nn(C)c2c1CCCN(C(=O)c1cc[nH]n1)C2 ... 2.19
O=S(=O)(NCC1CCN(c2cnccn2)CC1)c1c(F)cccc1F ... -3.89
CCn1cnnc1C1CCN(C(=O)c2cc3c(s2)CCC3)CC1 ... 8.78

Would you kindly share the measured Percent Effect for Cc1nc(N2CCN(C)CC2)ncc1C(=O)N1CC(C)(C)C(C)(O)C1 (stereo not drawn) ? -5.09

Give its Percent Effect value. Item: O=C(CCNC(=O)c1ccoc1)Nc1c(F)cccc1F 5.34

Would you mind telling me what Percent Effect value was observed for c1cnnc(N2CCCC2CNc2nc3ccccc3o2)c1 (stereo not drawn) ? 9.59

Would you kindly share the measured Percent Effect for O=C(c1ccnnc1)N1C[C@@H](OCC2CCCC2)[C@H]2OCCC[C@H]21 ? -1.77

# lookup: Percent Effect of CC(O)CN1CCC(CNCc2cccc(Br)c2)CC1 (stereo not drawn) 11.5

Which Percent Effect reading was recorded for the molecule Cc1noc(-c2ccc(N3CCCC(C(=O)N4CCSCC4)C3)nc2)n1 (stereo not drawn) ? 1.74

For COc1cccc(COCC(=O)N2CCCC(c3cc(C)[nH]n3)C2)c1 (stereo not drawn) , what is its reported Percent Effect? 3.3

Give the measured Percent Effect of Cc1nn(C)c(N2CCOCC2)c1CNCc1nccs1 . 5.34
